Assay: FBMN analysis of short peptides in small intestine contents and serum after oral DHG
Conditions: small intestine contents, 120 min after oral DHG, C57 mice; FBMN feature intensity, peptides smaller than 690 Da
Square brackets hold non-standard residues; d marks the D form. Peptide text beside a SMILES is read from it. pGlu = O=C1CC[CH](C(=O)O)N1
measure: Peptide signal (feature intensity) in the small intestine, 120 min

Illustrative cases are given below, each with its answer.
molecule	recorded-result
N[C@@H](CO)C(=O)N[C@@H](Cc1ccccc1)C(=O)O [Ser-Phe]	0.00E+00
CC[C@H](C)[C@H](NC(=O)[C@@H](N)CC(N)=O)C(=O)O [Asn-Ile] (H-Asn-Ile-OH)	4.19E+06
CCC(C)C(NC(=O)C1CCC(=O)N1)C(=O)O (stereo not drawn) [PyroGlu-Ile] ([pGlu]-Ile-OH; configuration not given here)	5.33E+05
Cc1cn([C@H]2C[C@H](O)[C@@H](CO)O2)c(=O)[nH]c1=O [Thymidine]	0.00E+00

P. CC(C)CC(NC(=O)C(N)Cc1ccc(O)cc1)C(=O)O (stereo not drawn) [Tyr-Leu] (H-Tyr-Leu-OH; configuration not given here)
Q. N[C@@H](CC(=O)O)C(=O)N1CCC[C@H]1C(=O)O [Asp-Pro] (H-Asp-Pro-OH)
// query Please indicate which item has the smaller measured Peptide signal (feature intensity) in the small intestine, 120 min: P versus Q Your answer should be the label attached to the chosen record.
// result P
(P: 0.00E+00, Q: 1.15E+07)

* * *

Assay: FBMN analysis of short peptides in small intestine contents and serum after oral DHG
Conditions: small intestine contents, 240 min after oral DHG, C57 mice; FBMN feature intensity, peptides smaller than 690 Da
Peptide text beside a SMILES is read from it.
measure: Peptide signal (feature intensity) in the small intestine, 240 min

Illustrative cases are given below, each with its answer.
molecule	recorded-result
Nc1nc2c(ncn2[C@@H]2O[C@H](CO)[C@@H](O)[C@H]2O)c(=O)[nH]1	0.00E+00
CC(C)[C@H](N)C(=O)NCC(=O)N[C@H](C(=O)O)C(C)C [Val-Gly-Val] (H-Val-Gly-Val-OH)	4.99E+06
CC(C)[C@@H]1NC(=O)[C@@H]2CCCN2C1=O	4.57E+05
CC(C)CC(NC(=O)C(N)CO)C(=O)O (stereo not drawn) [Ser-Leu] (H-Ser-Leu-OH; configuration not given here)	1.59E+07
NC(Cc1ccccc1)C(=O)NC(Cc1ccc(O)cc1)C(=O)O (stereo not drawn) [Phe-Tyr] (H-Phe-Tyr-OH; configuration not given here)	0.00E+00

a. CC(C)C[C@H](NC(=O)CN)C(=O)O
b. CC(C)CC(NC(=O)C(N)Cc1ccc(O)cc1)C(=O)O (stereo not drawn) [Tyr-Leu] (H-Tyr-Leu-OH; configuration not given here)
// query API: POST /compare with a and b ; response names the item with higher Peptide signal (feature intensity) in the small intestine, 240 min. Your answer should be the label attached to the chosen record.
// result a
(a: 4.47E+07, b: 0.00E+00)

* * *

Test: FBMN analysis of short peptides in small intestine contents and serum after oral DHG
Conditions: small intestine contents, 240 min after oral DHG, C57 mice; FBMN feature intensity, peptides smaller than 690 Da
Square brackets hold non-standard residues; d marks the D form. Peptide text beside a SMILES is read from it. pGlu = O=C1CC[CH](C(=O)O)N1
measure: Peptide signal (feature intensity) in the small intestine, 240 min

Illustrative cases are given below, each with its answer.
molecule	recorded-result
CSCC[C@H](NC(=O)[C@@H](N)Cc1c[nH]c2ccccc12)C(=O)O [Trp-Met] (H-Trp-Met-OH)	1.16E+06
CC(C)[C@H](NC(=O)[C@@H](N)CO)C(=O)O [Ser-Val] (H-Ser-Val-OH)	2.48E+07
CC[C@H](C)[C@H](N)C(=O)NCC(=O)N[C@H](C(=O)O)[C@@H](C)CC [Ile-Gly-Ile] (H-Ile-Gly-Ile-OH)	1.45E+06
CCC(C)C(N)C(=O)NC(C(=O)O)C(C)O (stereo not drawn) [Ile-Thr] (H-Ile-Thr-OH; configuration not given here)	0.00E+00
NC(Cc1ccccc1)C(=O)N1CCCC1C(=O)O (stereo not drawn) [Phe-Pro] (H-Phe-Pro-OH; configuration not given here)	3.02E+06
CCC(C)C(N)C(=O)N1CCCC1C(=O)O (stereo not drawn) [Ile-Pro] (H-Ile-Pro-OH; configuration not given here)	2.26E+07
NC(=O)C[C@H](N)C(=O)N[C@@H](Cc1ccccc1)C(=O)O [Asn-Phe] (H-Asn-Phe-OH)	4.96E+06
N[C@@H](CO)C(=O)N[C@@H](Cc1ccccc1)C(=O)O	4.01E+05
O=C1CCC(C(=O)N2CCCC2C(=O)O)N1 (stereo not drawn) [PyroGlu-Pro] ([pGlu]-Pro-OH; configuration not given here)	1.91E+07
CC[C@H](C)[C@H](N)C(=O)N[C@@H](CCC(=O)O)C(=O)N[C@@H](CCCCN)C(=O)O [Ile-Glu-Lys] (H-Ile-Glu-Lys-OH)	2.93E+06

1. NC(Cc1ccc(O)cc1)C(=O)NC(Cc1ccc(O)cc1)C(=O)O (stereo not drawn) [Tyr-Tyr] (H-Tyr-Tyr-OH; configuration not given here)
2. CC[C@H](C)[C@H](NC(=O)[C@@H](N)Cc1ccccc1)C(=O)N[C@@H](CCCCN)C(=O)O [Phe-Ile-Lys] (H-Phe-Ile-Lys-OH)
// query Please indicate which item has the smaller measured Peptide signal (feature intensity) in the small intestine, 240 min: 1 versus 2 Your answer should be the label attached to the chosen record.
// result 1
(1: 0.00E+00, 2: 7.83E+05)

src = paper PMC12616683
